system: PPARg:RXRa (NR concentration 180 nM, RXRa partner concentration 90 nM); experiment: PBM binding z-score (relative to random genomic background probes); higher = stronger binding; sequences stand for … in GC…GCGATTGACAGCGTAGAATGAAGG
observation type: PBM binding z-score
The reply should be a number, written without any unit.

For TCTGCCAGGTCAACGATGGTCAGCTAATCTGCTA , what is its reported PBM binding z-score?
2.13

---

Measured PBM binding z-score, listed per entry.
test system: PPARg DBDmut IVT, anti-PPARg (DBD mutation: PPARg1 K132A/R137A, NR concentration 270 nM); assay: PBM binding z-score (relative to random genomic background probes); higher = stronger binding; sequences stand for … in GC…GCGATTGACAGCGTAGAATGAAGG

{"columns": ["record sequence", "PBM binding z-score"],
 "data": [
  ["TGAATGAGGTTAAAGATCAGGCAACGTGGCGTCG", 0.0672],
  ["CGAACTAGGTCAAGGACATTGAATCTCCGCACGC", 0.731],
  ["GCTAGCAGGCCATTTGGGTCACTCCATGACGGGC", -0.961]
]}

Which measured PBM binding z-score belongs to TCTTGTAGATCAAGCAGGTTAAGAATGCCTGAGT , tested on PPARg DBDmut IVT, anti-PPARg (DBD mutation: PPARg1 K132A/R137A, NR concentration 270 nM)?
0.577

Which measured PBM binding z-score belongs to TGAATGAGGTTGAAGATCAGGGAACGTGGCGTCG , tested on PPARg DBDmut IVT, anti-PPARg (DBD mutation: PPARg1 K132A/R137A, NR concentration 270 nM)?
0.38

Which measured PBM binding z-score belongs to CGACCTAGGTCATTGACAGGACAGTGAATAGTAA , tested on PPARg DBDmut IVT, anti-PPARg (DBD mutation: PPARg1 K132A/R137A, NR concentration 270 nM)?
0.214

Which measured PBM binding z-score belongs to ATCTCTAGGTAAAAGATCAGTGAATCCCGAGGAT , tested on PPARg DBDmut IVT, anti-PPARg (DBD mutation: PPARg1 K132A/R137A, NR concentration 270 nM)?
0.762

Which measured PBM binding z-score belongs to CCTGCTAGGTCAATGCTCAGCTAAAGCAGCTCGC , tested on PPARg DBDmut IVT, anti-PPARg (DBD mutation: PPARg1 K132A/R137A, NR concentration 270 nM)?
-0.86

Which measured PBM binding z-score belongs to GCTAGCAGGTCATTTGGGTCACTCAATGACGGGC , tested on PPARg DBDmut IVT, anti-PPARg (DBD mutation: PPARg1 K132A/R137A, NR concentration 270 nM)?
-0.577

Which measured PBM binding z-score belongs to CCGATTAGGTTATGGGGCATTCAGGCAACGGTGA , tested on PPARg DBDmut IVT, anti-PPARg (DBD mutation: PPARg1 K132A/R137A, NR concentration 270 nM)?
-1.33

Which measured PBM binding z-score belongs to ATATGTAAGTTAAGGGTCATTCAGGTTGGTTCGC , tested on PPARg DBDmut IVT, anti-PPARg (DBD mutation: PPARg1 K132A/R137A, NR concentration 270 nM)?
1.39

Which measured PBM binding z-score belongs to TGTTGTAGATCAAAGGTTAAGAAAGCCGAAGCCT , tested on PPARg DBDmut IVT, anti-PPARg (DBD mutation: PPARg1 K132A/R137A, NR concentration 270 nM)?
0.517

Which measured PBM binding z-score belongs to TCATATAGGTAAATGCTAGGTGAAAGTTCGATCT , tested on PPARg DBDmut IVT, anti-PPARg (DBD mutation: PPARg1 K132A/R137A, NR concentration 270 nM)?
1.1
